# Assay System: DNA polymerase eta (Homo sapiens)
# Assay Summary: qHTS for Inhibitors of Polymerase Eta
# Run Parameters: recombinant Pol eta, fluorescent DNA replication assay; series mostly up to 114 µM
# Text: The Y-family of DNA polymerases, such as Pol eta, are specifically involved in DNA repair. Pol eta copies undamaged DNA with a lower fidelity than other DNA-directed polymerases. However, it accurately replicates UV-damaged DNA; when thymine dimers are present, this polymerase inserts the complementary nucleotides in the newly synthesized DNA, thereby bypassing the lesion and suppressing the mutagenic effect of UV-induced DNA damage. […]
In all, about 390,000 compounds went through this assay and about 4,700 (1.2%) were called active. Roughly 4% stayed inconclusive and do not appear here. Calls come from the whole dose curve; as a rule, active = well fitted inhibition curve with a large enough effect; inconclusive = small, poorly fitted or top-dose-only effect, or another doubt; inactive = no such curve, though single readings can be large or run the other way. This excerpt belongs to a sample that is enriched for actives.
Possible outcomes: active, inactive

{"columns": ["Compound", "Qualitative Label"],
 "data": [
  ["COc1ccc(Cn2ccnc2SCC(=O)Nc2ccc3c(c2)OCO3)cc1", "inactive"],
  ["CN(Cc1ccccc1)C(=O)c1cn(C)c2ccc(S(=O)(=O)N3CCCCC3)cc2c1=O", "inactive"],
  ["Cc1c(C(=O)N(C)C)sc2c1c(=O)n(-c1ccc(F)cc1)c(=O)n2CC(=O)N(C)c1ccccc1", "inactive"],
  ["O=c1cc2nc(-c3ccccc3)nc(SCCOc3ccc(Cl)cc3)n2[nH]1", "inactive"],
  ["COc1ccc(CNC(=O)CCC(=O)Nc2nnc(C(C)C)s2)cc1", "inactive"],
  ["CCOc1ccccc1NC(=O)Cc1cccs1", "active"],
  ["CCc1nnc(NC(=O)CCC(=O)NCc2ccccc2OC)s1", "inactive"],
  ["Cc1csc2nc(COc3ccc(NC(=O)COc4ccccc4)cc3)cc(=O)n12", "inactive"],
  ["CCOc1ccc(C(=O)Nc2ccc3nc4c(c(Nc5ccccc5OC)c3c2)CCCC4)cc1", "inactive"],
  ["COc1ccc(Cc2nnc(NC(=O)Cc3cccs3)s2)cc1", "active"],
  ["O=C(CSc1nc(=O)[nH]c2c1CCCC2)Nc1cc(C(F)(F)F)ccc1Cl", "inactive"],
  ["CCOc1ccc(NC(=O)C/C(C)=N/NC(=O)Cc2cccs2)cc1", "inactive"],
  ["CCOc1ccccc1NC(=O)CCn1cnnn1", "inactive"],
  ["Cc1c(C(=O)N2CCCC2)oc2c1-c1nn(CC(=O)NCc3ccc(OC(C)C)cc3)cc1CC2", "inactive"],
  ["O=C(CCc1ccccc1)NCCc1cccs1", "inactive"],
  ["COc1ccc(CC(=O)Nc2sc(Cc3ccccc3)c(C)c2C(N)=O)cc1", "inactive"],
  ["CSC1=N/C(=C\\C=C\\c2cccs2)C(=O)S1", "active"],
  ["COc1cc(Cl)c(NC(=O)C(NS(=O)(=O)c2cccs2)C(C)C)c(OC)c1 (configuration not stated)", "inactive"],
  ["CCOC(=O)c1cc2c(=O)n3ccccc3nc2n(CC2CCCO2)c1=NC(=O)c1ccccc1F (configuration not stated)", "inactive"],
  ["Cc1cccc(N2CCN(C(=O)CCSCc3ccccc3F)CC2)c1C", "inactive"],
  ["O=C(O)CCC(=O)N(Cc1cccs1)Cc1cccs1", "active"],
  ["Cc1ccc(CNC(=O)CCc2c(C)nc3c(c(C)nn3-c3ccccc3)c2C)cc1", "inactive"]
]}
